- Tested on: PC-3
- test.summary: Growth inhibition of human PC3 cells after 48 hrs by sulforhodamine B assay
- Type: functional
- test.conditions: PC-3, 48 h
Labelling: GI50 reported below 3000 nM becomes fulfilled; at or above becomes not fulfilled.

smiles=CC(C)=CCC/C(C)=C/CC/C(C)=C/CC[C@]1(C)CCc2c3c(c(C)c(C)c2O1)OCN(CCCCCO)C3 assay_target=PC-3 class_label="not fulfilled"
smiles=CC(C)=CCC/C(C)=C/CC/C(C)=C/CC[C@]1(C)CCc2c3c(cc(C)c2O1)OCN(CCc1ccc(O)cc1)C3 assay_target=PC-3 class_label="not fulfilled"
smiles=COc1ccc(CCN2COc3cc(C)c4c(c3C2)CC[C@@](C)(CC/C=C(\C)CC/C=C(\C)CCC=C(C)C)O4)cc1OC assay_target=PC-3 class_label=fulfilled
smiles=CC(C)=CCC/C(C)=C/CC/C(C)=C/CC[C@]1(C)CCc2c3c(cc(C)c2O1)OCN(CCCCCO)C3 assay_target=PC-3 class_label="not fulfilled"
smiles=CC(C)=CCC/C(C)=C/CC/C(C)=C/CC[C@]1(C)CCc2c3c(c(C)c(C)c2O1)OCN(CCCCO)C3 assay_target=PC-3 class_label="not fulfilled"
smiles=CC(C)=CCC/C(C)=C/CC/C(C)=C/CC[C@]1(C)CCc2c3c(cc(C)c2O1)OCN(CCCO)C3 assay_target=PC-3 class_label=fulfilled
smiles=CC(C)=CCC/C(C)=C/CC/C(C)=C/CC[C@]1(C)CCc2c3c(c(C)c(C)c2O1)OCN(CCCCCCO)C3 assay_target=PC-3 class_label=fulfilled
smiles=CC(C)=CCC/C(C)=C/CC/C(C)=C/CC[C@]1(C)CCc2c3c(cc(C)c2O1)OCN(C1CCN(Cc2ccccc2)CC1)C3 assay_target=PC-3 class_label=fulfilled
smiles=CC(C)=CCC/C(C)=C/CC/C(C)=C/CC[C@]1(C)CCc2c3c(cc(C)c2O1)OCN(CCCCO)C3 assay_target=PC-3 class_label="not fulfilled"
smiles=CC(C)=CCC/C(C)=C/CC/C(C)=C/CC[C@]1(C)CCc2c3c(cc(C)c2O1)OCN(CCCCCCCCO)C3 assay_target=PC-3 class_label=fulfilled
smiles=CC(C)=CCC/C(C)=C/CC/C(C)=C/CC[C@]1(C)CCc2c3c(c(C)c(C)c2O1)OCN(CCCCCCCCO)C3 assay_target=PC-3 class_label=fulfilled
smiles=CC(C)=CCC/C(C)=C/CC/C(C)=C/CC[C@]1(C)CCc2c3c(cc(C)c2O1)OCN(CCCCCCO)C3 assay_target=PC-3 class_label=fulfilled
